# Test system: OVCAR-5
# Test Protocol: NCI tumour cell line growth inhibition, 48 h
Active and inactive are the calls of the source. Cut-off read from the data, not from the text of the source: active = GI50 up to about 1.1 µM and inactive = higher. Residues, ends and D or L forms follow the SMILES beside them. *: point of attachment. Boc = CC(C)(C)OC(=O)*; OBn = c1ccc(CO*)cc1
Quantity Measured: GI50

Request: Which value of GI50 has been reported for Clc1ccc(Cc2nc3ccccc3nc2-c2cccc(Cl)c2)cc1 in the records?
Result: 7.38 µM (inactive)

Request: What would you report for CC(C)C(NC(=O)CNC(=O)C1CCCN1C(=O)C(NC(=O)OC(C)(C)C)C(C)C)C(=O)NCC(=O)OCc1ccccc1 (stereo not drawn) (Boc-VPGVG-OBn; configuration not given here) ?
Result: > 100 µM (inactive)

Request: What would you report for CC(=O)OCC(=O)[C@@]12OC(C)(C)O[C@@H]1C[C@H]1[C@@H]3CC=C4C[C@@H](O)CC[C@]4(C)[C@H]3CC[C@@]12C ?
Result: > 100 µM (inactive)

Request: What would you report for Cc1ccnc(NC(NC(=O)c2ccccc2)(C(F)(F)F)C(F)(F)F)c1 ?
Result: > 100 µM (inactive)

Request: What would you report for c1ccc(CCn2cncn2)cc1 ?
Result: > 100 µM (inactive)

Request: What would you report for CC1=CC(C)C(C)N(CCNC(=O)Nc2ccccc2)c2ccccc21 (stereo not drawn) ?
Result: 19.5 µM (inactive)

Request: What would you report for O=C(C(=O)N1CC2C=CC1CC2)c1c[nH]c2ccccc12 (stereo not drawn) ?
Result: > 100 µM (inactive)

Request: What would you report for CCC(=O)C(C)C(=O)C(=O)C(=O)OC (stereo not drawn) ?
Result: > 100 µM (inactive)

Request: What would you report for COc1ccc(C(=O)Nc2ccc3oc(-c4ccccc4)nc3c2)cc1 ?
Result: > 100 µM (inactive)

Request: What would you report for C=C(CCOC)CCC1CCCCC(=C)[C@H]1O (stereo partly drawn) ?
Result: > 100 µM (inactive)

Request: What would you report for CC[C@@]1(O)C(=O)OCc2c1cc1n(c2=O)Cc2cc3c(NC(=O)CN)cccc3nc2-1 ?
Result: 7.8 µM (inactive)

Request: What would you report for Cc1ccccc1N/N=C1\C(=O)Nc2ccccc21 ?
Result: > 100 µM (inactive)

Request: What would you report for C/C(=C\COP(=O)(O)OP(=O)(O)O)CC/C=C(\C)CNc1ccc([N+](=O)[O-])cc1 ?
Result: > 100 µM (inactive)

Just for reference, ChEMBL document CHEMBL1201862 is where these values come from.
